Property: EC50; scope: individual molecules
- Tested on: Leishmania mexicana
- Test: Antileishmanial activity against axenic amastigote stage of Leishmania mexicana (MNYC/BZ/62/M379) assessed as induction of parasite killing incubated for 24 hrs by alamar blue dye based fluorescence analysis
- Assay type: functional
- Measurement Setup: read-out: ED50 (the source's name)
Readout Type: EC50 (µM)

{"Smiles": "CC1(C)CC[C@]2(CO)CC[C@]3(C)C(=CC[C@@H]4[C@@]5(C)CC[C@@H]6O[C@H]([C@H](O)[C@@H](O)[C@H](O)[C@H](O)CO)OC[C@@]6(C)[C@@H]5CC[C@]43C)[C@@H]2C1", "Bound Operator": ">", "Test Result": 50}
{"Smiles": "CC1(C)CC[C@]2(NC(=O)N3CCC[C@H]3CO)CC[C@]3(C)C(=CC[C@@H]4[C@@]5(C)CC[C@@H]6OC(C)(C)OC[C@@]6(C)[C@@H]5CC[C@]43C)[C@@H]2C1", "Bound Operator": "=", "Test Result": 26.2}
{"Smiles": "COC(=O)[C@]12CCC(C)(C)C[C@H]1C1=CC[C@@H]3[C@@]4(C)CC[C@@H]5O[C@H](c6ccccc6C(=O)O)OC[C@@]5(C)[C@@H]4CC[C@@]3(C)[C@]1(C)CC2", "Bound Operator": "=", "Test Result": 10}

---

- Test system: Leishmania mexicana
- Test: Antileishmanial activity against axenic amastigote stage of Leishmania mexicana (MNYC/BZ/62/M379) assessed as induction of parasite killing incubated for 24 hrs by alamar blue dye based fluorescence analysis
- Format: functional
- Measurement Setup: read-out: ED50 (the source's name)
Property: EC50; scope: individual molecules

{"Molecule": "CC1(C)CC[C@]2(C(=O)OCc3ccc([N+](=O)[O-])cc3)CC[C@]3(C)C(=CC[C@@H]4[C@@]5(C)CC[C@H](O)[C@@](C)(CO)[C@@H]5CC[C@]43C)[C@@H]2C1", "EC50": "36.2 µM"}
{"Molecule": "C[C@@H]1O[C@@H](O[C@H]2[C@H](O[C@H]3CC[C@@]4(C)[C@@H](CC[C@]5(C)[C@@H]4CC=C4[C@@H]6CC(C)(C)CC[C@]6(C(=O)O)CC[C@]45C)[C@]3(C)CO)OC[C@H](O)[C@@H]2O)[C@H](O)[C@H](O)[C@H]1O", "EC50": "19.6 µM"}
{"Molecule": "C[C@@H]1O[C@@H](C[C@@H]2OC[C@@]3(C)[C@@H]4CC[C@]5(C)[C@H](CC=C6[C@@H]7CC(C)(C)CC[C@]7(C(=O)O)CC[C@]65C)[C@@]4(C)CC[C@@H]3O2)[C@@H](O)[C@H](O)[C@@H]1O", "EC50": "19.4 µM"}
{"Molecule": "CC1(C)CC[C@]2(NC(=O)NCc3cccnc3)CC[C@]3(C)C(=CC[C@@H]4[C@@]5(C)CC[C@@H]6OC(C)(C)OC[C@@]6(C)[C@@H]5CC[C@]43C)[C@@H]2C1", "EC50": "17.5 µM"}
{"Molecule": "CC1(C)CC[C@]2(NC(=O)NCCN3CCCC3)CC[C@]3(C)C(=CC[C@@H]4[C@@]5(C)CC[C@@H]6OC(C)(C)OC[C@@]6(C)[C@@H]5CC[C@]43C)[C@@H]2C1", "EC50": "> 50 µM"}
{"Molecule": "CN1CCN(C(=O)[C@@H]2CCCN2C(=O)N[C@]23CCC(C)(C)C[C@H]2C2=CC[C@@H]4[C@@]5(C)CC[C@@H]6OC(C)(C)OC[C@@]6(C)[C@@H]5CC[C@@]4(C)[C@]2(C)CC3)CC1", "EC50": "32.4 µM"}
{"Molecule": "CO[C@H]1O[C@H]([C@@H]2OC[C@@]3(C)[C@@H]4CC[C@]5(C)[C@H](CC=C6[C@@H]7CC(C)(C)CC[C@]7(C(=O)O)CC[C@]65C)[C@@]4(C)CC[C@@H]3O2)[C@@H](O)[C@H](O)[C@H]1O", "EC50": "6 µM"}
{"Molecule": "CCOCc1ccc(C2OC[C@@]3(C)[C@@H]4CC[C@]5(C)[C@H](CC=C6[C@@H]7CC(C)(C)CC[C@]7(C(=O)O)CC[C@]65C)[C@@]4(C)CC[C@@H]3O2)o1 (some centres undefined)", "EC50": "19.2 µM"}
{"Molecule": "COC(=O)[C@]12CCC(C)(C)C[C@H]1C1=CC[C@@H]3[C@@]4(C)CC[C@@H]5O[C@H](CC6O[C@H]([C@H](C)O)[C@@H](O)[C@@H]6O)OC[C@@]5(C)[C@@H]4CC[C@@]3(C)[C@]1(C)CC2 (some centres undefined)", "EC50": "> 50 µM"}
